Give drug sensitivity score for every item shown.
System: Ba/F3 P210-BCR-ABL1 RUNX1-/mut (mouse)
Test: drug sensitivity score (DSS) (DSS score); higher = more sensitive (stronger growth inhibition); extreme values may be limits of the assay
// print number alone

QUERY: Supply recorded drug sensitivity score for COc1ccc(-c2ccc3c(N4CCOC[C@@H]4C)nc(N4CCOC[C@@H]4C)nc3n2)cc1CO here.
RESULT: 25

QUERY: Supply recorded drug sensitivity score for CCN(c1cc(-c2ccc(CN3CCOCC3)cc2)cc(C(=O)NCc2c(C)cc(C)[nH]c2=O)c1C)C1CCOCC1 here.
RESULT: 0.25

QUERY: Supply recorded drug sensitivity score for CC(=O)N(O)CCCCCNC(=O)CCC(=O)N(O)CCCCCNC(=O)CCC(=O)N(O)CCCCCN here.
RESULT: 6.6

QUERY: Supply recorded drug sensitivity score for S=c1[nH]cnc2nc[nH]c12 here.
RESULT: 3.65

QUERY: Supply recorded drug sensitivity score for CCN(CC)Cc1ccc2cc(COC(=O)Nc3ccc(C(=O)NO)cc3)ccc2c1 here.
RESULT: 12.7

QUERY: Supply recorded drug sensitivity score for CC(O)c1cc(C(=O)N[C@@H](C)Cn2ccc(-c3ccc(C#N)c(Cl)c3)n2)n[nH]1 (some centres not stated) here.
RESULT: 2.05

QUERY: Supply recorded drug sensitivity score for COc1cc2c(Oc3ccc4[nH]c(C)cc4c3F)ncnc2cc1OCCCN1CCCC1 here.
RESULT: 0

QUERY: Supply recorded drug sensitivity score for CC(C)(C#N)c1cc(Cn2cncn2)cc(C(C)(C)C#N)c1 here.
RESULT: 0.15

QUERY: Supply recorded drug sensitivity score for CNC(=O)c1ccc(-c2cnc3ncc(Cc4ccc5ncccc5c4)n3n2)cc1F here.
RESULT: 0

QUERY: Supply recorded drug sensitivity score for CC(C)(C)NC(=O)[C@H]1CC[C@H]2[C@@H]3CC[C@H]4NC(=O)C=C[C@]4(C)[C@H]3CC[C@]12C [Finasteride] here.
RESULT: 0

QUERY: Supply recorded drug sensitivity score for Cn1cnc2c(F)c(Nc3ccc(Br)cc3Cl)c(C(=O)NOCCO)cc21 here.
RESULT: 1.1

QUERY: Supply recorded drug sensitivity score for CN(C)C[C@@H]1CCn2cc(c3ccccc32)C2=C(C(=O)NC2=O)c2cn(c3ccccc23)CCO1 here.
RESULT: 9.25

QUERY: Supply recorded drug sensitivity score for O=C(O)c1ccc(CN2CCC(CN[C@@H]3C[C@H]3c3ccccc3)CC2)cc1 here.
RESULT: 0

QUERY: Supply recorded drug sensitivity score for C=CCn1c(=O)c2cnc(Nc3ccc(N4CCN(C)CC4)cc3)nc2n1-c1cccc(C(C)(C)O)n1 here.
RESULT: 20.8

QUERY: Supply recorded drug sensitivity score for Nc1nc(OCc2cc(Br)cs2)c2[nH]cnc2n1 here.
RESULT: 0.05

QUERY: Supply recorded drug sensitivity score for Cc1sc2c(c1C)C(c1ccc(Cl)cc1)=N[C@@H](CC(=O)Nc1ccc(O)cc1)c1nnc(C)n1-2 here.
RESULT: 24.6

QUERY: Supply recorded drug sensitivity score for COc1cc2ncnc(Nc3ccc(F)c(Cl)c3)c2cc1OCCCN1CCOCC1 here.
RESULT: 5.35

====

Give drug sensitivity score for every item shown.
System: Ba/F3 P210-BCR-ABL1 RUNX1-/mut (mouse)
Assay: drug sensitivity score (DSS) (DSS score); higher = more sensitive (stronger growth inhibition); extreme values may be limits of the assay
// print number alone

QUERY: Supply recorded drug sensitivity score for CCNC(=O)c1noc(-c2cc(C(C)C)c(O)cc2O)c1-c1ccc(CN2CCOCC2)cc1 here.
RESULT: 28.7

QUERY: Supply recorded drug sensitivity score for C=CC(=O)N1CCC(Oc2cc3c(Nc4ccc(Cl)c(Cl)c4F)ncnc3cc2OC)CC1 here.
RESULT: 0

QUERY: Supply recorded drug sensitivity score for CCOCc1nc2c(N)nc3ccccc3c2n1CC(C)(C)O here.
RESULT: 3.6

QUERY: Supply recorded drug sensitivity score for NC(=O)/C(=C/n1cnc(-c2cc(C(F)(F)F)cc(C(F)(F)F)c2)n1)c1cncnc1 [Eltanexor] here.
RESULT: 27.2

QUERY: Supply recorded drug sensitivity score for CN1CCN(C2CCN(C(=O)Nc3cc(Oc4ccc(NC(=O)C5(C(=O)Nc6ccc(F)cc6)CC5)c(F)c4)ccn3)CC2)CC1 here.
RESULT: 1.8

QUERY: Supply recorded drug sensitivity score for CC(C)N(C[C@H]1O[C@@H](n2cnc3c(N)ncnc32)[C@H](O)[C@@H]1O)[C@H]1C[C@@H](CCc2nc3cc(C(C)(C)C)ccc3[nH]2)C1 here.
RESULT: 0

QUERY: Supply recorded drug sensitivity score for CNC(=O)c1ccccc1Nc1cc(Nc2ccc(N3CCOCC3)cc2OC)ncc1C(F)(F)F here.
RESULT: 7.65
